Target: HPK1 (MAP4K1) (Homo sapiens)
Sequence (Q92918 whole entry): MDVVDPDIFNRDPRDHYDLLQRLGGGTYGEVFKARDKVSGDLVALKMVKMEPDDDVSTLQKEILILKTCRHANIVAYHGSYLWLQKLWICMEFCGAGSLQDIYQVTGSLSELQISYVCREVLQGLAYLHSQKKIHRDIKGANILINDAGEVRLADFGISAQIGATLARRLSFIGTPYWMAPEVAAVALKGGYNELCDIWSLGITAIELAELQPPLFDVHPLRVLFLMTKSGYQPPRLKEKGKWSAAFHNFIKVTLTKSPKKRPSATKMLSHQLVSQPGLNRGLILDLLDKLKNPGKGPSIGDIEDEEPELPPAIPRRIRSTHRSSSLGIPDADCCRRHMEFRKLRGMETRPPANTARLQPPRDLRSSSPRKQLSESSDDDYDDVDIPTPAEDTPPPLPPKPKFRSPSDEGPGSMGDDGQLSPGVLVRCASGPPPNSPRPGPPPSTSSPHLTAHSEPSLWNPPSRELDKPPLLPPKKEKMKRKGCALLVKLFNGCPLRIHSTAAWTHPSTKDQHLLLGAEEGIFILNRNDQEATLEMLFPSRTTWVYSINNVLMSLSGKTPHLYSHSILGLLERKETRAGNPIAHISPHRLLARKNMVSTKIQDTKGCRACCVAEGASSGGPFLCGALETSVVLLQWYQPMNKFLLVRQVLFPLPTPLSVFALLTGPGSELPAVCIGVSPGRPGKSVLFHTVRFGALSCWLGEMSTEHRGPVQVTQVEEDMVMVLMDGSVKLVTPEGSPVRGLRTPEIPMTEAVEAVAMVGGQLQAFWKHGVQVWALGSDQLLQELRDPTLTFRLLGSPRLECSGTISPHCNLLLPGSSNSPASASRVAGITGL
Experiment: FRET Assay for HPK1 (MAP4K1): one step binding assay, displacement of labeled tracer
Condition Context: 1 μM compound; FRET ratio 665/620, percent of control
Counter-ions that a name gives are not always drawn.
Attribute Measured: inhibition at 1 µM (%)

[
  {
    "Compound": "C/C(Nc1ccn(C)n1)=C1/C(=O)Nc2cnc(-c3cnccc3C)cc21",
    "Target": "HPK1 (MAP4K1) (Homo sapiens)",
    "Attribute Measured": "inhibition at 1 µM",
    "Measured Result": 88.5
  }
]

I: C/C(Nc1cnn(CCN2CCOCC2)c1)=C1/C(=O)Nc2cnc(-c3cnccc3C)cc21
II: COc1cccc(F)c1-c1cc2c(cn1)NC(=O)/C2=C(/C)NC1CCNCC1 [Example 72, trihydrochloride]
Task for the reader: decide whether I or II has the larger inhibition at 1 µM. Give the label of your selection.
I
